Numbers sourced from patent US20200131144A1.

- ASSAYED_TARGET: LXRα ligand-binding domain (LBD) (Homo sapiens, UniProt Q13133)
- Sequence (Q13133 155-447): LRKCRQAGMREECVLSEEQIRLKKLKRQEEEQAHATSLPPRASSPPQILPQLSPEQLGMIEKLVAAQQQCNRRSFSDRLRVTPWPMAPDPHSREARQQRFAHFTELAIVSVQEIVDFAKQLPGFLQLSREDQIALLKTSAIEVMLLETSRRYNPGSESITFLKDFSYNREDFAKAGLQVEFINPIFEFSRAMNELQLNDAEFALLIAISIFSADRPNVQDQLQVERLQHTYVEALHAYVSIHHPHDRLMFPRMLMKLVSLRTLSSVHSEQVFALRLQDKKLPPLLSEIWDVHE
- ASSAY_NOTES: LXR Gal4 reporter transient transfection assay, mammalian two-hybrid, LBD-M2H Gal4α
- TEST_PARAMETERS: HEK293 cells; inverse agonist unless *
pEC50: −log10 of the molar value.
OBSERVED_PROPERTY: pEC50

Bench note: what pEC50 did Cc1cc(C)c(CN(Cc2ccc(C(F)(F)F)o2)Cc2ccc(-c3cccc(S(=O)(=O)CC(=O)O)c3)cc2Cl)c(C)c1 [15/3] show? 5.00 to 6.00

Bench note: what pEC50 did Cc1cc(C)c2ccccc2c1CN(Cc1ccc(-c2cccc(C(C)(C)C(=O)O)c2)cc1)Cc1ccc(C(F)(F)F)o1 [24/6] show? > 7.00

Bench note: what pEC50 did Cc1cc(C)c(C(=O)N(Cc2ccc(-c3cccc(S(=O)(=O)CC(=O)O)c3)cc2)Cc2ccc(C(F)(F)F)o2)c(C)c1 [Example 4] show? 6.00 to 7.00

Bench note: what pEC50 did CC(C)(C(=O)O)c1cccc(-c2ccc(CN(Cc3ccc(C(F)(F)F)o3)C(=O)c3cccn4nccc34)cc2)c1 [27/70] show? 6.00 to 7.00

----------
For each record, write down the corresponding pEC50.
- ASSAYED_TARGET: GST-LXRβ ligand-binding domain (Homo sapiens, UniProt P55055, INS174Q)
- Construct: amino acids 156-461; NP009052
- ASSAY_NOTES: TR-FRETβ activity assay (NCoA3 coactivator peptide recruitment)
- TEST_PARAMETERS: 1 μM 24(S)-25-epoxycholesterol as prestimulating agonist; inverse agonist unless *
pEC50: −log10 of the molar value.

Bench note: what pEC50 did Cc1cc(C)c(CN(Cc2ccc(-c3cccc(S(=O)(=O)CC(=O)N(C)O)c3)cc2)Cc2ccc(C(F)(F)F)o2)c(C)c1 [5/2] show? > 7.00

Bench note: what pEC50 did COc1ccc2c(c1C(=O)N(Cc1ccc(-c3cccc(C(C)(C)C(=O)O)c3)cc1)Cc1ccc(C(F)(F)F)o1)CCCC2 [27/45] show? > 7.00

Bench note: what pEC50 did Cc1ccc2c(F)cccc2c1C(=O)N(Cc1ccc(-c2cccc(C(C)(C)C(=O)O)c2)cc1)Cc1ccc(C(F)(F)F)o1 [27/12] show? > 7.00

Bench note: what pEC50 did Cc1ccc2ccccc2c1CN(Cc1ccc(-c2cccc(C(=O)C(=O)O)c2)cc1)Cc1ccc(C(F)(F)F)o1 [27/82] show? 5.00 to 6.00

Bench note: what pEC50 did Cc1nc2cccnc2c(C(=O)N(Cc2ccc(C(F)(F)F)o2)Cc2ccc(-c3cccc(C(C)(C)C(=O)O)c3)cc2C#N)c1C [27/109] show? 5.00 to 6.00

Bench note: what pEC50 did CCc1cc(-c2cncc(C(C)(C)C(=O)O)c2)ccc1CN(Cc1ccc(C(F)(F)F)o1)C(=O)c1c(C)ccc2ccccc12 [27/65] show? 6.00 to 7.00

Bench note: what pEC50 did CC(C)(C(=O)O)c1cccc(-c2ccc(CN(Cc3ccc(C(F)(F)F)o3)Cc3c(C#N)ccc4ccccc34)cc2)c1 [27/67] show? > 7.00

----------
For each record, write down the corresponding pEC50.
- ASSAYED_TARGET: LXRβ full length (FL) (Homo sapiens, UniProt P55055, INS174Q)
- Construct: the full length (FL) proteins of LXRα (amino acids 1-447); NP005684; NP009052
- Sequence (P55055 with tags, fused parts or gaps INS174Q): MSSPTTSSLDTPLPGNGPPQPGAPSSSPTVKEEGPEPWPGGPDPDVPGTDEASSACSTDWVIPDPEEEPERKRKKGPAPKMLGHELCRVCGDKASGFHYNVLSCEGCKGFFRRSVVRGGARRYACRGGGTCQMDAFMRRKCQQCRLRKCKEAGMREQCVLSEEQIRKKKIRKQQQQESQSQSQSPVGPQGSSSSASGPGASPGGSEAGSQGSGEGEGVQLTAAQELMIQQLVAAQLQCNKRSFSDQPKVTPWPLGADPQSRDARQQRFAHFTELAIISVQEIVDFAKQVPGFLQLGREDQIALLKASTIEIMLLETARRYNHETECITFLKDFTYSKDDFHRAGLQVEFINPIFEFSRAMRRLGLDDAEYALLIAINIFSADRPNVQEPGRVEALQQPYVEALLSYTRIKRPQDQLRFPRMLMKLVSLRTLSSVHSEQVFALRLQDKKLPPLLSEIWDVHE
- ASSAY_NOTES: LXR Gal4 reporter transient transfection assay, mammalian two-hybrid, FL-M2H Gal4β
- TEST_PARAMETERS: HEK293 cells; inverse agonist unless *
pEC50: −log10 of the molar value.

Checklist item: pEC50 tested on LXRβ full length (FL) (Homo sapiens, UniProt P55055, INS174Q), entry Cc1cc(C)c(CN(Cc2ccc(-c3cc(F)cc(S(=O)(=O)CC(=O)O)c3)cc2)Cc2ccc(C(F)(F)F)o2)c(C)c1 [12/1] , value? 6.00 to 7.00

Checklist item: pEC50 tested on LXRβ full length (FL) (Homo sapiens, UniProt P55055, INS174Q), entry COc1cnc2cccnc2c1C(=O)N(Cc1ccc(C(F)(F)F)o1)Cc1ccc(-c2cccc(C(C)(C)C(=O)O)c2)cc1Cl [27/124] , value? > 7.00

Checklist item: pEC50 tested on LXRβ full length (FL) (Homo sapiens, UniProt P55055, INS174Q), entry CCOC(=O)OC(OC(=O)C(C)(C)c1cccc(-c2ccc(CN(Cc3ccc(C(F)(F)F)o3)C(=O)c3c(C)ccc4ccccc34)cc2)c1)C(C)C (centres unmarked) [Example 31] , value? > 7.00

Checklist item: pEC50 tested on LXRβ full length (FL) (Homo sapiens, UniProt P55055, INS174Q), entry COc1cc(-c2cccc(C(C)(C)C(=O)O)c2)ccc1CN(Cc1ccc(C(F)(F)F)o1)C(=O)c1c(C)c(C)nc2ccccc12 [27/104] , value? > 7.00

Checklist item: pEC50 tested on LXRβ full length (FL) (Homo sapiens, UniProt P55055, INS174Q), entry COCc1c(C)cc(C)c(CN(Cc2ccc(-c3cccc(C(C)(C)C(=O)O)c3)cc2)Cc2ccc(C(F)(F)F)o2)c1C [27/71] , value? > 7.00

Checklist item: pEC50 tested on LXRβ full length (FL) (Homo sapiens, UniProt P55055, INS174Q), entry Cc1cc(C)c(C(=O)N(Cc2ccc(-c3cc(F)c(CO)c(S(=O)(=O)CC(=O)O)c3)cc2)Cc2ccc(C(F)(F)F)o2)c(C)c1 [22/13] , value? 6.00 to 7.00

Checklist item: pEC50 tested on LXRβ full length (FL) (Homo sapiens, UniProt P55055, INS174Q), entry Cc1cc(C)c(CN(Cc2ccc(-c3cccc(S(=O)(=O)CC(=O)N(C)O)c3)cc2)Cc2ccc(C(F)(F)F)o2)c(C)c1 [5/2] , value? > 7.00

Checklist item: pEC50 tested on LXRβ full length (FL) (Homo sapiens, UniProt P55055, INS174Q), entry COc1cc(-c2cccc(C(C)(C)C(=O)O)c2)ccc1CN(Cc1ccc(C(F)(F)F)o1)C(=O)c1c(C)c(C)nc2cccnc12 [27/108] , value? > 7.00

----------
- ASSAY_NOTES: Short term HFD mouse model: liver and plasma exposure after multiple oral dosing
- Type: in vivo, mice (C57BL/6J)
- TEST_PARAMETERS: C57BL/6J, liver/plasma, HFD mice, three oral doses of 5 mg/kg each, 4 h after final dose, read-out: liver/plasma ratio, 4 h
OBSERVED_PROPERTY: Kp at 4 h
Number, no unit, nothing else.

Bench note: what Kp at 4 h did Cc1ccc2ccccc2c1CN(Cc1ccc(-c2cccc(C(C)(C)C(=O)O)c2)cc1)Cc1ccc(C(F)(F)F)o1 show? 2.9

----------
For each record, write down the corresponding concentration at 4 h.
- ASSAY_NOTES: Short term HFD mouse model: liver and plasma exposure after multiple oral dosing
- Assay type: in vivo, mice (C57BL/6J)
- TEST_PARAMETERS: C57BL/6J, plasma, HFD mice, three oral doses of 10 mg/kg each, 4 h after final dose, read-out: plasma exposure, 4 h
Number only, in nM; omit the unit.

Bench note: what concentration at 4 h did COc1ccc2c(c1CN(Cc1ccc(-c3cccc(C(C)(C)C(=O)O)c3)cc1)Cc1ccc(C(F)(F)F)o1)CCCC2 show? 2920

Bench note: what concentration at 4 h did Cc1ccc2ccccc2c1C(=O)N(Cc1ccc(-c2cccc(C(C)(C)C(=O)O)c2)cc1)Cc1ccc(C(F)F)o1 show? 3020

Bench note: what concentration at 4 h did COc1ccc2c(c1C(=O)N(Cc1ccc(-c3cccc(C(C)(C)C(=O)O)c3)cc1)Cc1ccc(C(F)(F)F)o1)CCCC2 show? 871

Bench note: what concentration at 4 h did Cc1ccc2ccccc2c1C(=O)N(Cc1ccc(-c2cccc([C@@H](C)C(=O)O)c2)cc1)Cc1ccc(C(F)(F)F)o1 show? 3160

Bench note: what concentration at 4 h did Cc1nc2cccnc2c(C(=O)N(Cc2ccc(-c3cccc(C(C)(C)C(=O)O)c3)cc2)Cc2ccc(C(F)(F)F)o2)c1C show? 2100

Bench note: what concentration at 4 h did Cc1ccc2ccccc2c1C(=O)N(Cc1ccc(C(F)(F)F)o1)Cc1ncc(-c2cccc(C(C)(C)C(=O)O)c2)cc1Cl show? 300

Bench note: what concentration at 4 h did COc1cc(-c2cccc(C(C)(C)C(=O)O)c2)ccc1CN(Cc1ccc(C(F)(F)F)o1)C(=O)c1c(C)ccc2ccccc12 show? 399

----------
- ASSAY_NOTES: Short term HFD mouse model: liver and plasma exposure after multiple oral dosing
- Type: in vivo, mice (C57BL/6J)
- TEST_PARAMETERS: C57BL/6J, liver, HFD mice, three oral doses of 10 mg/kg each, 4 h after final dose, read-out: liver exposure, 4 h
For each record, write down the corresponding log10 concentration at 4 h.
Kindly note that the scale is log10 and the underlying concentration at 4 h is in µM.

Bench note: what log10 concentration at 4 h did Cc1ccc2ccccc2c1C(=O)N(Cc1ccc(-c2cccc(C(C)(O)C(=O)O)c2)cc1)Cc1ccc(C(F)(F)F)o1 (stereo not shown) show? 1.64

Bench note: what log10 concentration at 4 h did Cc1nc2cccnc2c(C(=O)N(Cc2ccc(-c3cccc(C(C)(C)C(=O)O)c3)cc2)Cc2ccc(C(F)(F)F)o2)c1C show? 2.19

Bench note: what log10 concentration at 4 h did COc1ccc2c(c1CN(Cc1ccc(-c3cccc(C(C)(C)C(=O)O)c3)cc1)Cc1ccc(C(F)(F)F)o1)CCCC2 show? 0.83

Bench note: what log10 concentration at 4 h did Cc1ccc2ccccc2c1C(=O)N(Cc1ccc(C(F)(F)F)o1)Cc1ncc(-c2cccc(C(C)(C)C(=O)O)c2)cc1Cl show? 1.26

Bench note: what log10 concentration at 4 h did COc1cc(-c2cccc(C(C)(C)C(=O)O)c2)ccc1CN(Cc1ccc(C(F)(F)F)o1)C(=O)c1c(C)ccc2ccccc12 show? 1.88

Bench note: what log10 concentration at 4 h did Cc1nc2ccccc2c(C(=O)N(Cc2ccc(-c3cccc(C(C)(C)C(=O)O)c3)cc2)Cc2ccc(C(F)(F)F)o2)c1C show? 1.56

Bench note: what log10 concentration at 4 h did Cc1ccc2ccccc2c1C(=O)N(Cc1ccc(-c2cccc([C@@H](C)C(=O)O)c2)cc1)Cc1ccc(C(F)(F)F)o1 show? 1.40
